Can you tell me IC50 for the items I'm about to list?
# Tested on: PC-3
# PROTOCOL_SUMMARY: PC-3 cell proliferation assay (WST-1)
# Assay type: cell-based
# DETAILS: Homo sapiens; inhibitory activity against PC-3 cell proliferation

Quote IC50 reported for Cc1cn(-c2ccc3c(N)ncnc3c2SCCNC(C)(C)C)c2c1C(=O)CC(C)(C)C2 please.
0.5 to 5 µM

Respond only with IC50 recorded for Cc1cn(-c2ccc3c(N)ncnc3c2)c2c1C(=O)CC(C)(C)C2
0.5 to 5 µM

Give a short answer stating reported IC50 for COc1cc(COc2cc(-n3cc(C)c4c3CC(C)(C)CC4=O)cc3ncnc(N)c23)cc(OC)c1 .
0.5 to 5 µM

Item Cc1cn(-c2ccc3c(N)ncc(N)c3c2)c2c1C(=O)CC(C)(C)C2 : provide IC50
5 to 50 µM

Note down IC50 recorded for Cc1c2c(n(-c3ccc4c(N)ncnc4c3)c1C)CC(C)(C)CC2=O
< 0.5 µM

For C/C(=N\O)c1cnc(N)c2ccc(-n3cc(C)c4c3CC(C)(C)CC4=O)cc12 , write its IC50.
5 to 50 µM

Fill in reported IC50 for this entry: Cc1cn(-c2cc(F)c3c(N)nc(N)nc3c2)c2c1C(=O)CC(C)(C)C2
0.5 to 5 µM

Specify measured IC50 for Cc1cn(-c2ccc3c(N)ncnc3c2OC2CCOCC2)c2c1C(=O)CC(C)(C)C2 .
0.5 to 5 µM

====

# Test system: HSP-90 (heat shock protein 90)
# PROTOCOL_SUMMARY: Determination of affinity for HSP-90 (elution from purine affinity column); note: key: +++: very high; ++: high; +: moderate
# DETAILS: relative binding affinity to HSP-90
READOUT: Affinity

In the examples that follow, each entry is paired with its recorded Affinity.
| SMI | Affinity |
| --- | --- |
| Cc1cn(-c2ccc3c(N)nc(N)nc3c2)c2c1C(=O)CC(C)(C)C2 | +++ |
| Cc1cn(-c2ccc3c(N)ncnc3c2O)c2c1C(=O)CC(C)(C)C2 | +++ |
| COCCCOc1c(-n2cc(C)c3c2CC(C)(C)CC3=O)ccc2c(N)ncnc12 | +++ |
| CC1(C)CC(=O)c2c(C(F)(F)F)nn(-c3ccc4c(N)ncc(Br)c4c3)c2C1 | + |
| Cc1cn(-c2ccc3c(N)ncnc3c2Cl)c2c1C(=O)CC(C)(C)C2 | ++ |

// switching to the query compound
Enter measured Affinity, system HSP-90 (heat shock protein 90), for the compound shown: Cc1cn(-c2ccc3c(Cl)nccc3c2)c2c1C(=O)CC(C)(C)C2
+

====

Would you kindly list IC50 for each of these compounds?
# Tested on: PC-3
# PROTOCOL_SUMMARY: PC-3 cell proliferation assay (WST-1)
# Type: cell-based
# DETAILS: Homo sapiens; inhibitory activity against PC-3 cell proliferation

Report IC50, nothing else, for this compound: CC1(C)CC(=O)c2c(CC3CC3)nn(-c3ccc4c(N)ncnc4c3)c2C1
5 to 50 µM

Read the entry Cc1cn(-c2ccc3c(N)ncnc3c2SCCNCC(C)(C)C)c2c1C(=O)CC(C)(C)C2 and write its reported IC50.
< 0.5 µM

Please supply the value of reported IC50 for the item Cc1cn(-c2ccc3c(N)ncc(C(N)=O)c3c2)c2c1C(=O)CC(C)(C)C2
5 to 50 µM

Identify IC50 associated with the compound CCOc1c(-n2cc(C)c3c2CC(C)(C)CC3=O)ccc2c(N)ncnc12
0.5 to 5 µM

Please supply the value of reported IC50 for the item Cc1cn(-c2ccc3c(N)ncnc3c2F)c2c1C(=O)CC(C)C2 (centres unmarked)
0.5 to 5 µM
